Experiment: stopped-flow CO2 hydrase assay
Assay type: biochemical, Homo sapiens
Settings: read-out: hCA I
pKi: −log10 of the molar value.

{"columns": ["compound", "pKi"],
 "data": [
  ["CC(C(=O)NCCOc1ccc2ccc(=O)oc2c1)c1ccc(-c2ccccc2)c(F)c1 (stereo not shown)", "< 5.00"]
]}

====

Target: hCA IX (Homo sapiens)
Construct: gene CA9; recombinant, obtained in-house; tumour-associated isoform
Assay: stopped-flow CO2 hydrase assay
Assay type: biochemical
Reported Ki is given for each of the following molecules.

{"columns": ["molecule", "qualifier sign", "Ki [nM]"],
 "data": [
  ["NS(=O)(=O)Nc1cccc(S(=O)(=O)N2CCCC(C(=O)N3CCN(C(c4ccc(F)cc4)c4ccc(F)cc4)CC3)C2)c1 (stereo not drawn) [compound 6]", "=", 296],
  ["NS(=O)(=O)Nc1ccc(S(=O)(=O)N2CCCC(C(=O)N3CCN(C(c4ccc(F)cc4)c4ccc(F)cc4)CC3)C2)cc1 (stereo not drawn) [compound 9]", "=", 902],
  ["NS(=O)(=O)Nc1cccc(S(=O)(=O)NCCC(=O)N2CCN(C(c3ccccc3)c3ccccc3)CC2)c1 [compound 5]", "=", 1020],
  ["NS(=O)(=O)Nc1ccc(S(=O)(=O)N2CCCC(C(=O)N3CCN(C(c4ccccc4)c4ccccc4)CC3)C2)cc1 (stereo not drawn) [compound 8]", "=", 1410],
  ["CC(C(=O)NCCOc1ccc2ccc(=O)oc2c1)c1ccc(-c2ccccc2)c(F)c1 (stereo not drawn) [compound 4]", "=", 159],
  ["NS(=O)(=O)Nc1ccccc1S(=O)(=O)N1CCCC(C(=O)N2CCN(C(c3ccccc3)c3ccccc3)CC2)C1 (stereo not drawn) [compound 7]", ">", 10000]
]}

====

Some compounds, each annotated with its measured pKi.
Target: hCA XII (Homo sapiens)
Construct: recombinant, obtained in-house; tumour-associated isoform
Sequence (O43570 25-354 limits assumed): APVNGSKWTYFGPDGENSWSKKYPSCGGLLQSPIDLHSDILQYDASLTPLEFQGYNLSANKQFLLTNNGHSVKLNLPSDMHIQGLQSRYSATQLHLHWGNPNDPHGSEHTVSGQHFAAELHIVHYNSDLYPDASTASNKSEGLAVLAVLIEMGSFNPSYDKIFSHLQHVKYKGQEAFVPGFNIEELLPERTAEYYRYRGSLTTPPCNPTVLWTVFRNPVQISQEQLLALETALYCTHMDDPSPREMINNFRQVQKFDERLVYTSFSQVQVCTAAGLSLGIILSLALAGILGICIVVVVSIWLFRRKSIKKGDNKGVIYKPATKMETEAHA
Assay: stopped-flow CO2 hydrase assay
Settings: […] HEPES pH […] Na2SO4, CO2 substrate; […] h preincubation
pKi: −log10 of the molar value.
measurement type: pKi

{"columns": ["cpd smiles", "experimental system", "value"],
 "data": [
  ["O=C(Cc1ccccc1Nc1c(Cl)cccc1Cl)NCCOc1ccc2oc(=O)ccc2c1", "hCA XII (Homo sapiens)", 7.03],
  ["O=C(Cc1ccccc1Nc1c(Cl)cccc1Cl)NCCOc1ccc2ccc(=O)oc2c1", "hCA XII (Homo sapiens)", 7.09]
]}

====

Catalogue of pKi readings, one per entry.
Target: hCA II (Homo sapiens, UniProt P00918)
Construct: recombinant, obtained in-house; cytosolic isoform
Assay: stopped-flow CO2 hydrase assay
Settings: read-out: hCA I
Source text: stopped-flow CO2 hydrase assay on hCA II
pKi: −log10 of the molar value.
measurement type: pKi

{"columns": ["compound", "value"],
 "data": [
  ["O=C(Cc1ccccc1Nc1c(Cl)cccc1Cl)NCCOc1ccc2oc(=O)ccc2c1 [compound 1]", "< 5.00"],
  ["O=C(Cc1ccccc1Nc1c(Cl)cccc1Cl)NCCOc1ccc2ccc(=O)oc2c1 [compound 3]", "< 5.00"],
  ["CC(C(=O)NCCOc1ccc2ccc(=O)oc2c1)c1ccc(-c2ccccc2)c(F)c1 (stereo not drawn) [compound 4]", "< 5.00"]
]}
